Ref: ChEMBL document CHEMBL1132744

System: MCF7
Experiment: Antiproliferative activity of compound was evaluated on MCF-7 cells from human breast adenocarcinoma
Assay type: functional
Details: read-out: ID50 (the source's name)
pIC50: −log10 of the molar value.
measured_quantity: pIC50

COC1=CC(=O)c2[nH]c(SC)nc2C1=O	4.44
CO[C@@]12[C@H](COC(N)=O)C3=C(C(=O)C(C)=C(N)C3=O)N1C[C@@H]1N[C@@H]12 [MITOMYCIN]	4.37
COC1=CC(=O)c2[nH]c(-c3ccccn3)nc2C1=O	4.58
CSc1nc2c([nH]1)C(=O)C=C(Br)C2=O	4.20
CSc1nc2c([nH]1)C(=O)C=CC2=O	4.20
CSc1nc2c([nH]1)C(=O)C(Br)=C(Br)C2=O	4.39
